RatioGI50 values, listed per item
- protocol notes: Selectivity index, ratio of GI50 for human THP1 macrophages to GI50 for blood stage of Trypanosoma brucei rhodesiense STIB 900
observed property: RatioGI50

>>> meas_value("CC(C)(C)c1ccc2[nH]c3c(c2c1)CC(=O)Nc1ccc(/C=C/C(=O)c2ccc(Cl)cc2)cc1-3")
2.2
>>> meas_value("CC(C)(C)c1ccc2[nH]c3c(c2c1)CC(=O)Nc1ccc(/C=C/C(=O)c2ccco2)cc1-3")
2.3

----------
- protocol notes: Selectivity index, ratio of GI50 for human THP1 macrophages to GI50 for blood stage of Trypanosoma brucei rhodesiense STIB 900
observed property: RatioGI50

>>> meas_value("CC(C)(C)c1ccc2[nH]c3c(c2c1)CC(=O)Nc1ccc(/C=C/C(=O)c2ccc(O)cc2)cc1-3")
9.8
>>> meas_value("CC(C)(C)c1ccc2[nH]c3c(c2c1)CC(=O)Nc1ccc(CCC(=O)c2ccccc2)cc1-3")
">88.8"
>>> meas_value("COc1cccc(-c2ccc3c(c2)-c2[nH]c4ccc(C(C)(C)C)cc4c2CC(=O)N3)c1")
">62.5"
>>> meas_value("CC(C)(C)c1ccc2[nH]c3c(c2c1)CC(=O)Nc1ccc(/C=C/C(=O)N2CCCCC2)cc1-3")
1.3
>>> meas_value("COc1ccc(NC(=O)/C=C/c2ccc3c(c2)-c2[nH]c4ccc(C(C)(C)C)cc4c2CC(=O)N3)cc1")
"<1"
>>> meas_value("CC(C)(C)c1ccc2[nH]c3c(c2c1)CC(=O)Nc1ccc(-c2ccc(OC(F)(F)F)cc2)cc1-3")
">33.3"
>>> meas_value("CC(C)(C)c1ccc2[nH]c3c(c2c1)CC(=O)Nc1ccc(C(=O)/C=C/c2ccccc2)cc1-3")
">163.9"
>>> meas_value("CCN(CC)C(=O)/C=C/c1ccc2c(c1)-c1[nH]c3ccc(C(C)(C)C)cc3c1CC(=O)N2")
3.7

----------
- protocol notes: Cytotoxicity against human THP1 macrophages after 48 hrs by Alamar Blue assay
- Type: cell-based
- assay setup: THP-1 macrophages
Listed next: entries and their corresponding log10 of GI50 at 48 h.
observed property: log10 of GI50 at 48 h (log10 of the value in µM)

>>> meas_value("COCCc1ccc(OCc2cccc(-c3ccc4c(c3)-c3[nH]c5ccc(C(C)(C)C)cc5c3CC(=O)N4)c2)cc1")
1.11
>>> meas_value("CC(C)(C)c1ccc2[nH]c3c(c2c1)CC(=O)Nc1ccc(/C=C/C(=O)c2cccnc2)cc1-3")
1.68
>>> meas_value("CCN(CC)C(=O)/C=C/c1ccc2c(c1)-c1[nH]c3ccc(C(C)(C)C)cc3c1CC(=O)N2")
0.61
>>> meas_value("CC(C)(C)c1ccc2[nH]c3c(c2c1)CC(=O)Nc1ccc(/C=C/C(=O)c2ccc(O)cc2)cc1-3")
1.86
>>> meas_value("CC(C)(C)c1ccc2[nH]c3c(c2c1)CC(=O)Nc1ccc(/C=C/C(=O)c2ccc(Cl)cc2)cc1-3")
1.61
>>> meas_value("CN1CCN(C(=O)/C=C/c2ccc3c(c2)-c2[nH]c4ccc(C(C)(C)C)cc4c2CC(=O)N3)CC1")
1.25

----------
Item-by-item account of RatioGI50
- protocol notes: Selectivity index, ratio of GI50 for human THP1 macrophages to GI50 for blood stage of Trypanosoma brucei rhodesiense STIB 900
observed property: RatioGI50

>>> meas_value("CC(C)(C)c1ccc2[nH]c3c(c2c1)CC(=O)Nc1ccc(-c2ccccc2)cc1-3")
">55.6"
>>> meas_value("CC(C)(C)c1ccc2[nH]c3c(c2c1)CC(=O)Nc1ccc(/C=C/C(=O)Nc2cccc(Cl)c2)cc1-3")
"<1"
>>> meas_value("CC(C)(C)c1ccc2[nH]c3c(c2c1)CC(=O)Nc1ccc(-c2ccc4c(c2)OCO4)cc1-3")
">131.6"

----------
Measured GI50 at 48 h values are reported for all entries that follow.
- protocol notes: Cytotoxicity against human THP1 macrophages after 48 hrs by Alamar Blue assay
- Type: cell-based
- assay setup: THP-1 macrophages
observed property: GI50 at 48 h

>>> meas_value("CC(C)(C)c1ccc2[nH]c3c(c2c1)CC(=O)Nc1ccc(C(=O)/C=C/c2ccccc2)cc1-3")
"> 100 µM"
>>> meas_value("CC(C)(C)c1ccc2[nH]c3c(c2c1)CC(=O)Nc1ccc(-c2ccccc2)cc1-3")
"> 100 µM"
>>> meas_value("COc1ccc(-c2ccc3c(c2)-c2[nH]c4ccc(C(C)(C)C)cc4c2CC(=O)N3)cc1")
"> 100 µM"
